Test system: HCT-116 colon
experimental_details: NCI tumour cell line growth inhibition, 48 h
measurement_name: GI50

Below, 5 compounds whose answers are already recorded.
| compound | measured |
| --- | --- |
| COc1ccc2c(c1)C(=O)c1c-2c(Nc2ccc(Cl)cc2)nc2ccccc12 | 5.03 µM |
| CN(CC(=O)N(Cc1ccc(C2CCCCC2)cc1)c1ccc(C(=O)O)c(O)c1)S(=O)(=O)c1c(F)c(F)c(F)c(F)c1F | 3.72 µM |
| COc1ccc(Cn2cc3c(c2-c2ccc(OC)cc2)CCc2cnoc2-3)cc1 | 0.451 µM |
| O=C(Nc1ccccc1)NS(=O)(=O)c1ccc(-n2nc3c(c2-c2ccc(Cl)cc2)Cc2ccccc2-3)cc1 | 22.5 µM |
| C=C1CCC2C(C)(C)CCC[C@]2(C)[C@H]1CO (stereo not given in full) | 30.4 µM |

Query string: // fetch GI50 given entry Cc1c(COc2cc(OCc3cccc(C#N)c3)c(CN3C[C@H](O)C[C@@H]3C(=O)O)cc2Cl)cccc1-c1ccc2c(c1)OCCO2
Result string: 1.96 µM

Query string: In one line, give reported GI50 of the entry COc1cc2c(cc1C)NC(=O)/C2=C\c1cccc(Oc2ccccc2)c1 .
Result string: 7.88 µM

Query string: Provide only the value of recorded GI50 for COc1cc2c3c(n(CCCI)c(=O)c2cc1OC)-c1cc2c(cc1C3=O)OCO2
Result string: 2.6 µM

Query string: Tell us which GI50 value is on record for CO/N=C(\C)COc1ccc2c(=O)c(-c3ccccc3)coc2c1
Result string: 14.8 µM

Query string: Read off the recorded GI50 for CN(C)c1ccc(C(Cc2ccc3ccccc3n2)Cc2ccc3ccccc3n2)cc1
Result string: 2.64 µM

* * *

Overview of reported TGI across a group of compounds:
Tested on: UACC-62 melanoma
experimental_details: NCI tumour cell line growth inhibition, 48 h
Give your result in µM as a bare value.

| compound | TGI, µM |
| --- | --- |
| Cc1cc(N(CCNc2ccnc3cc(Cl)ccc23)Cc2ccco2)nc(Cl)n1 | 3.38 |
| COc1cc2c(cc1C)NC(=O)/C2=C\c1cccc(Oc2ccccc2)c1 | 25.4 |

Query string: Quick one: give measured TGI for COC(=O)C1=C(O)C(C(=O)OC)[C@]2(O)[C@H](C(=O)OC)[C@H]1C[C@@H](c1c(Cl)cccc1Cl)[C@H]2C(=O)OC (some centres undefined)
Result string: 5.56

Query string: Note TGI for the compound shown: O=C(Nc1ccccc1)NS(=O)(=O)c1ccc(-n2nc3c(c2-c2ccc(Cl)cc2)Cc2ccccc2-3)cc1
Result string: 30.6

Query string: Tell me TGI reported for COC(=O)C1=C(C)NC(C)=C(C(=O)OC)C1/C=C(Cl)/C=C/c1ccccc1
Result string: 30.8

Query string: Name the recorded TGI of the item Cc1noc2nnn(-c3ccc(Cl)cc3)c(=O)c12 in your answer.
Result string: 17.8

Query string: Quote TGI reported for CCOC(=O)C(=Cc1ccc(Oc2ccccc2)cc1)C(=O)OCC please.
Result string: 3.26

Query string: Identify measured TGI corresponding to CN1CCN(c2ccc3nc(-c4ccc5nc(-c6ccc(OCCC(C)(C)C)cc6)[nH]c5c4)[nH]c3c2)CC1
Result string: 40.1

* * *

Tested on: SNB-75 CNS
experimental_details: NCI tumour cell line growth inhibition, 48 h
Where a SMILES comes first, the peptide text is derived from it. The star is where a group is joined. Fmoc = O=C(OCC1c2ccccc2-c2ccccc21)*; Boc = CC(C)(C)OC(=O)*
Where TGI equals or exceeds 6 µM, the correct label is satisfied; where it does not, the label is not satisfied.

Solved entries:
| compound | assigned_class |
| --- | --- |
| O=[N+]([O-])c1c(Br)sc(Br)c1[N+](=O)[O-] | not satisfied |
| CC(C)(C)OC(=O)NCCCCC(NC(=O)OCC1c2ccccc2-c2ccccc21)C(=O)N1CCCC1C(=O)NCC(N)=O (stereo not drawn) (Fmoc-Lys(Boc)-Pro-Gly-NH2; configuration not given here) | satisfied |
| CN(C)CCNC(=O)c1cccc2c1nc(-c1ccccc1)c1ccccc12 | satisfied |

Query string: Is TGI for CC1C2CC(C(S(=O)(=O)N3CCOCC3)/C2=N\O)C1(C)C (centres undefined) at or above 6 µM?
Result string: satisfied

Query string: # check: TGI of CC(C)C(C)C(C)(C)P(C)(C)=O (centres undefined) is greater than or equal to 6 µM
Result string: satisfied

Query string: Is it the case that O=C1/C(=C/c2ccc(Cl)cc2)N=C(c2ccccc2)N1CCc1cccs1 has TGI reaching or exceeding 6 µM?
Result string: satisfied

Query string: Record CCC(=O)c1c(NOC2OC(COC(C)=O)C(OC(C)=O)C(OC(C)=O)C2OC(C)=O)nc(OC)n(C)c1=O (centres undefined) ; criterion: TGI no lower than 6 µM. Met?
Result string: satisfied

Query string: Does TGI meet or surpass 6 µM for C[C@]1(CO)CCC[C@@]2(C)C1CC[C@H]1CC3C[C@]12CC[C@]3(C)O (some centres undefined) ?
Result string: satisfied

Query string: Assess whether reported TGI for COc1ccc2sc(-n3nc4ccccc4c3Nc3nc4ccc(OC)cc4s3)nc2c1 sits at 6 µM or higher.
Result string: satisfied

Query string: Form field: TGI at least 6 µM? Entry: CCC1CN2CCc3c([nH]c4ccccc34)C2C[C@@H]1CC(=O)N(C)C (some centres undefined)
Result string: satisfied

Query string: Does TGI meet or surpass 6 µM for COCOc1c(C(O[Si](C)(C)C(C)(C)C)c2cnc(Sc3ccccc3)n2C)ccc(OC)c1OC (centres undefined) ?
Result string: not satisfied

Query string: Does O=C(O)c1cn2c3c(cc(N4CCN(CCO)CC4)cc3c1=O)SCC2 have a reported TGI of at least 6 µM?
Result string: satisfied

Query string: API: above_or_equal(metric=TGI, cutoff=6 µM) for item COC(=O)CCC(=O)CC(=O)C(=O)Nc1c(Cl)cc([N+](=O)[O-])cc1Cl
Result string: satisfied

Query string: Entry Cc1ccc(S(=O)(=O)OCC23CCC(CC2)C2CC23)cc1 (centres undefined) : is its TGI no less than 6 µM?
Result string: satisfied

Query string: Given O=C1c2ccccc2C(=O)c2c1ccc(C1C(=O)c3ccccc3C1=O)c2-c1c(C2C(=O)c3ccccc3C2=O)ccc2c1C(=O)c1ccccc1C2=O , state whether its TGI is at least 6 µM.
Result string: satisfied

Query string: Form field: TGI at least 6 µM? Entry: CO/N=C(\C)COc1ccc2c(=O)c(-c3ccccc3)coc2c1
Result string: satisfied

Query string: Given the entry COc1ccc(C(SCCO)(c2ccccc2)c2ccccc2)cc1 , answer whether its TGI meets or surpasses 6 µM.
Result string: satisfied

Query string: Please tell me: is the compound CCOC(=O)C1OC(C2(C)OC3(OC4(C=CC3O)OC(C(C)C(=O)C(C)C(O)C(C)CC(C)c3c(Cl)cc(C)c(O)c3C(=O)O)C(C)CC4C)C(C)C2OC)CC1O (centres undefined) at or over 6 µM in terms of TGI?
Result string: not satisfied

Query string: Entry CN(C)c1ccc(C(Cc2ccc3ccccc3n2)Cc2ccc3ccccc3n2)cc1 : is its TGI no less than 6 µM?
Result string: satisfied

* * *

Tested on: OVCAR-8 ovarian
experimental_details: NCI tumour cell line growth inhibition, 48 h
TGI overview

Query string: Input O=c1[nH]c(=O)n(C2CC(O)C(CO)O2)cc1C1=NC1 (stereo unspecified) , output reported TGI.
Result string: > 100 µM

Query string: Complete the entry with TGI for c1csc(-c2cc(-c3cccs3)c(-c3cccs3)s2)c1
Result string: > 100 µM

Query string: Give the value of TGI reported for the following: Cc1c(COc2cc(OCc3cccc(C#N)c3)c(CN3C[C@H](O)C[C@@H]3C(=O)O)cc2Cl)cccc1-c1ccc2c(c1)OCCO2
Result string: > 100 µM

Query string: For the molecule NC1CC2NC3CCCCC3NC2CC1N (stereo unspecified) , give its measured TGI value.
Result string: > 100 µM

Query string: Answer with the recorded TGI for the molecule listed here: CCOC(=O)C1=C(C)N(c2ccc(C)cc2)C2=C(C(=O)N(c3ccccc3)C2c2ccccc2)C1c1ccccc1 (stereo unspecified)
Result string: > 25 µM

Query string: Return TGI for the following molecule: CNC(=O)N(C)COC
Result string: > 100 µM

Query string: // fetch TGI given entry CSc1ccc(NC(=S)NN(C)C)cc1
Result string: > 10 µM

* * *

Test system: MDA-MB-435
experimental_details: NCI tumour cell line growth inhibition, 48 h
Threshold check on TGI: at or above 4 µM gives Criterion met, strictly below gives Criterion not met.

Consider the following illustrative entries.
| compound | assigned_class |
| --- | --- |
| Cc1ccc(OC2CC(n3cnc4ncnc(Cl)c43)OC2Oc2ccc(C)cc2)cc1 (stereo unspecified) | Criterion met |
| COc1ccc(/C=C2\CCC(CNc3ccc(OC)cc3)C2=O)cc1 (stereo unspecified) | Criterion met |
| CCCCNC(=S)Nc1nc(C(=O)NNC(=S)NC2CCCCC2)cs1 | Criterion met |

With those in mind, consider the next compound.
Query string: Kindly determine if TGI recorded for Brc1ccc2c([C@H]3CN[C@@H](c4c[nH]c5cc(Br)ccc45)CN3)c[nH]c2c1 is above or exactly 4 µM.
Result string: Criterion not met
